pIC50: recorded values
test system: PKB Ser473 phosphorylation in Rat1-myr-HA-p110 beta cells; test: Reverse protein array, PKB Ser473 phosphorylation in Rat1-myr-HA-p110 beta cells; format: cell-based; details: Rattus norvegicus, 0.5 h, 30 minutes compound incubation, read-out: p-PKB/IC50_beta
pIC50: −log10 of the molar value.

{"MOLECULE": "CCOc1ccc(-c2ccc3ncc4c(c3c2)n(-c2cncc(C)c2)c(=O)n4C)cn1", "LT_GT_EQ": "=", "pIC50": 6.69}
{"MOLECULE": "CNc1ncc(-c2ccc3ncc4c(c3c2)n(-c2ccc(N3CC(F)(F)C3)nc2C)c(=O)n4C)cn1", "LT_GT_EQ": "=", "pIC50": 7.90}
{"MOLECULE": "CNc1cc(-c2ccc3ncc4c(c3c2)n(-c2ccc(F)nc2C)c(=O)n4C)cnc1CO", "LT_GT_EQ": "=", "pIC50": 7.80}
{"MOLECULE": "CNc1ncc(-c2ccc3ncc4c(c3c2)n(-c2ccc(N3CC[C@H](O)C3)nc2C)c(=O)n4C)cc1Cl", "LT_GT_EQ": "=", "pIC50": 7.89}
{"MOLECULE": "Cc1ncccc1-n1c(=O)n(C)c2cnc3ccc(-c4ccc(N)nc4)cc3c21", "LT_GT_EQ": "=", "pIC50": 7.72}
{"MOLECULE": "Cc1ncccc1-n1c(=O)n(C)c2cnc3ccc(-c4ccc5nccn5c4)cc3c21", "LT_GT_EQ": "=", "pIC50": 6.56}
{"MOLECULE": "CNc1ncc(-c2ccc3ncc4c(c3c2)n(-c2ccc(N3CC[C@H](O)C3)nc2C)c(=O)n4C)cn1", "LT_GT_EQ": ">", "pIC50": 8.34}
{"MOLECULE": "CCOc1ccc(-c2ccc3ncc4c(c3c2)n(-c2ccc(F)nc2C)c(=O)n4C)cn1", "LT_GT_EQ": "=", "pIC50": 7.36}
{"MOLECULE": "COc1ccc(-n2c(=O)n(C)c3cnc4ccc(-c5cnc(N)c(C(F)(F)F)c5)cc4c32)c(C)n1", "LT_GT_EQ": "=", "pIC50": 7.89}
{"MOLECULE": "CCNc1cc(-c2ccc3ncc4c(c3c2)n(-c2ccc(N3CC(F)(F)C3)nc2C)c(=O)n4C)cnc1CO", "LT_GT_EQ": ">", "pIC50": 8.34}
{"MOLECULE": "COCCN(C)c1ccc(-n2c(=O)n(C)c3cnc4ccc(-c5cnc(N)c(C(F)(F)F)c5)cc4c32)c(C)n1", "LT_GT_EQ": "=", "pIC50": 8.21}
{"MOLECULE": "CNc1ncc(-c2ccc3ncc4c(c3c2)n(-c2ccc(N3CCC(OC)C3)nc2C)c(=O)n4C)cn1 (stereo not drawn)", "LT_GT_EQ": "=", "pIC50": 8.13}
{"MOLECULE": "Cc1nc(F)ccc1-n1c(=O)n(C)c2cnc3ccc(-c4cncc(N)c4)cc3c21", "LT_GT_EQ": "=", "pIC50": 7.63}
{"MOLECULE": "Cc1nc(N2CCC(O)C2)ccc1-n1c(=O)n(C)c2cnc3ccc(-c4cnc(N)c(C(F)(F)F)c4)cc3c21 (stereo not drawn)", "LT_GT_EQ": "=", "pIC50": 8.07}
{"MOLECULE": "Cc1ccc(-n2c(=O)n(C)c3cnc4ccc(-c5cnc(N(C)C)nc5)cc4c32)c(C)n1", "LT_GT_EQ": "=", "pIC50": 7.39}
{"MOLECULE": "Cn1c(=O)n(-c2cccnc2)c2c3cc(-c4ccc(CO)nc4)ccc3ncc21", "LT_GT_EQ": "=", "pIC50": 6.78}
{"MOLECULE": "COc1ccc(-c2ccc3ncc4c(c3c2)n(-c2cccnc2OC)c(=O)n4C)cn1", "LT_GT_EQ": "=", "pIC50": 7.19}
{"MOLECULE": "Cc1nc(F)ccc1-n1c(=O)n(C)c2cnc3ccc(-c4cnc(N)c(CO)c4)cc3c21", "LT_GT_EQ": "=", "pIC50": 6.67}
